Taken from ChEMBL document CHEMBL2150889.

molecular target: Metabotropic glutamate receptor 5 (Homo sapiens, UniProt P41594); assay: Negative allosteric modulation of human mGluR5 expressed in recombinant HEK293 cells by FLIPR assay; format: cell-based
Exercise: for every item that follows, state its recorded IC50.
Please give a number only; it is taken to be in nM.

The reported IC50 of the compound Cc1cccc(-c2noc(C3CN(S(=O)(=O)c4cccc(C)c4)C3)n2)c1 was 650

The reported IC50 of the compound Cc1cccc(-c2noc(C3CN(C(=O)C4CCOCC4)C3)n2)c1 was 1800

The reported IC50 of the compound O=C(C1CCCO1)N1CC(c2nc(-c3cccc(Cl)c3)no2)C1 (stereo unspecified) was 890

The reported IC50 of the compound Cc1cccc(-c2noc(C3CN(S(=O)(=O)c4ccc(F)cc4)C3)n2)c1 was 950

###

experiment: Solubility of the compound in potassium phosphate buffer after 4 hrs by UPLC analysis; assay type: physicochemical
Measurement Type: solubility at 4 h (µM)
Please give a number only; it is taken to be in µM.

The reported solubility at 4 h of the molecule O=C([C@H]1CC2CCC1C2)N1CC(c2nc(-c3cccc(F)c3)no2)C1 (some centres undefined) was 54

The reported solubility at 4 h of the molecule O=C(C1CCC(F)(F)CC1)N1CC(c2nc(-c3cccc(Cl)c3)no2)C1 was 130

The reported solubility at 4 h of the molecule O=C(c1ccc(F)cc1)N1CC(c2nc(-c3cccc(Cl)c3)no2)C1 was 47

The reported solubility at 4 h of the molecule CC1CCCCC1C(=O)N1CC(c2nc(-c3cccc(F)c3)no2)C1 (centres undefined) was 180

###

target: Metabotropic glutamate receptor 5 (Homo sapiens, UniProt P41594); test: Positive allosteric modulation of human mGluR5 expressed in recombinant HEK293 cells by FLIPR assay; type: cell-based
Measurement Type: Emax (%)
Please give a number only; it is taken to be in %.

The reported Emax of the compound Cc1cccc(-c2noc(C3CN(S(=O)(=O)c4cccc(C)c4)C3)n2)c1 was -4

The reported Emax of the compound Cc1cccc(-c2noc([C@@H]3CCN3C(=O)c3ccccc3F)n2)c1 was 6.2

The reported Emax of the compound O=C(N1CCCCCC1)N1CC(c2nc(-c3cccc(Cl)c3)no2)C1 was 44

The reported Emax of the compound O=C(C1CCC(F)(F)CC1)N1CC(c2nc(-c3cccc(Cl)c3)no2)C1 was 75

The reported Emax of the compound Cc1cccc(-c2noc(C3CN(C(=O)C4CCC4)C3)n2)c1 was 3

The reported Emax of the compound Cc1cccc(-c2noc([C@@H]3CCN3C(=O)Cc3ccc(F)cc3)n2)c1 was 24

The reported Emax of the compound Cc1cccc(-c2noc(C3CN(C(=O)C4CCOC4)C3)n2)c1 (stereo unspecified) was -7

The reported Emax of the compound Cc1cccc(-c2noc(C3CN(C(=O)C4CCCC4)C3)n2)c1 was -7

The reported Emax of the compound O=C(N1CCCCC1)N1CC(c2nc(-c3cccc(Cl)c3)no2)C1 was 44

The reported Emax of the compound O=C([C@H]1CC2CCC1C2)N1CC(c2nc(-c3cccc(F)c3)no2)C1 (stereo partly specified) was 140

The reported Emax of the compound O=C(c1cccc(F)c1)N1CC(c2nc(-c3cccc(Cl)c3)no2)C1 was -12

###

biological target: Metabotropic glutamate receptor 5 (Homo sapiens); assay: Negative allosteric modulation of human mGluR5 expressed in recombinant HEK293 cells by FLIPR assay
pIC50: −log10 of the molar value.
Measurement Type: pIC50

The reported pIC50 of the molecule O=C(c1cccc(F)c1)N1CC(c2nc(-c3cccc(Cl)c3)no2)C1 was 6.11

The reported pIC50 of the molecule O=C(N1CCC(F)CC1)N1CC(c2nc(-c3cccc(Cl)c3)no2)C1 was < 5.00

The reported pIC50 of the molecule O=C(N1CCCCC1)N1CC(c2nc(-c3cccc(Cl)c3)no2)C1 was < 5.00

The reported pIC50 of the molecule O=C(C1CCC(C(F)(F)F)CC1)N1CC(c2nc(-c3cccc(Cl)c3)no2)C1 (centres undefined) was < 5.00

The reported pIC50 of the molecule Cc1cccc(-c2noc(C3CN(C(=O)c4ccc(F)cc4)C3)n2)c1 was < 5.00

The reported pIC50 of the molecule Cc1cccc(-c2noc(C3CN(S(=O)(=O)c4ccc(Cl)cc4)C3)n2)c1 was 5.96

The reported pIC50 of the molecule Cc1ccc(S(=O)(=O)N2CC(c3nc(-c4cccc(C)c4)no3)C2)cc1 was 6.17

The reported pIC50 of the molecule Cc1cccc(-c2noc([C@@H]3CCN3C(=O)c3ccc(F)c(F)c3)n2)c1 was < 5.00

The reported pIC50 of the molecule CC1CCCC(C(=O)N2CC(c3nc(-c4cccc(Cl)c4)no3)C2)C1 (centres undefined) was < 5.00

###

Exercise: for every item that follows, state its recorded Activity.
target: Metabotropic glutamate receptor 5 (Homo sapiens, UniProt P41594); experiment: Positive allosteric modulation of human mGluR5 expressed in recombinant HEK293 cells by FLIPR assay; type: cell-based; design: concentration or dose not given beside the values
Please give a number only; it is taken to be in %.

The reported Activity of the compound O=C(N1CCCCCC1)N1CC(c2nc(-c3cccc(Cl)c3)no2)C1 was 41

The reported Activity of the compound O=C(C1CCC(F)(F)CC1)N1CC(c2nc(-c3cccc(Cl)c3)no2)C1 was 3

The reported Activity of the compound O=C(Cc1ccc(F)cc1)N1CC[C@H]1c1nc(-c2cccc(F)c2)no1 was 12

The reported Activity of the compound Cc1cccc(-c2noc([C@@H]3CCN3C(=O)c3ccc(F)c(F)c3)n2)c1 was 92

The reported Activity of the compound CC1CCCCC1C(=O)N1CC(c2nc(-c3cccc(F)c3)no2)C1 (stereo not given) was 48

###

test: Ratio of drug level in brain to plasma of rat at 10 mg/kg, po after 1 hr; format: ADME, organism-based; parameters: dose 10 mg/kg, route oral; conditions: brain and plasma, read-out: BPR
Exercise: for every item that follows, state its recorded Kp at 1 h.
Lab note: record the figure alone, no unit after it.

The reported Kp at 1 h of the compound O=C([C@H]1CC2CCC1C2)N1CC(c2nc(-c3cccc(F)c3)no2)C1 (some centres not stated) was 2.33

The reported Kp at 1 h of the compound O=C(C1CCC(F)(F)CC1)N1CC(c2nc(-c3cccc(Cl)c3)no2)C1 was 1.75

###

Exercise: for every item that follows, state its recorded pEC50.
molecular target: UniProt:P41594; assay: Positive allosteric modulation of human mGluR5 expressed in recombinant HEK293 cells by FLIPR assay
A value of pEC50 is the negative decimal logarithm of a concentration given in moles per litre.

The reported pEC50 of the compound O=C([C@@H]1CC2CCC1C2)N1CC(c2nc(-c3ccccc3)no2)C1 (some centres undefined) was 6.40

The reported pEC50 of the compound O=C(C1CCC(F)(F)CC1)N1CC(c2nc(-c3cccc(Cl)c3)no2)C1 was 6.74

The reported pEC50 of the compound Cc1cccc(-c2noc(C3CN(C(=O)C4CCC(C)CC4)C3)n2)c1 (centres undefined) was 6.01

The reported pEC50 of the compound O=C(c1ccc(F)cc1)N1CC(c2nc(-c3cccc(F)c3)no2)C1 was 5.62

The reported pEC50 of the compound Cc1cccc(-c2noc([C@@H]3CCN3C(=O)c3ccc(F)c(F)c3)n2)c1 was 5.82

###

molecular target: Metabotropic glutamate receptor 5 (Homo sapiens, UniProt P41594); assay: Negative allosteric modulation of human mGluR5 expressed in recombinant HEK293 cells by FLIPR assay; type: cell-based; set-up: concentration or dose not given beside the values; conditions: concentration not given here
Measurement Type: inhibition (%)
Please give a number only; it is taken to be in %.

The reported inhibition of the compound Cc1cccc(-c2noc(C3CN(C(=O)c4ccccc4F)C3)n2)c1 was 64

The reported inhibition of the compound Cc1cccc(-c2noc(C3CN(C(=O)C4CCC(C(F)(F)F)CC4)C3)n2)c1 (centres undefined) was 3

The reported inhibition of the compound Cc1cccc(-c2noc(C3CN(C(=O)C4CCCC4)C3)n2)c1 was 70

The reported inhibition of the compound Cc1cccc(-c2noc([C@@H]3CCN3C(=O)c3ccc(C#N)cc3)n2)c1 was 72

The reported inhibition of the compound Cc1ccc(S(=O)(=O)N2CC(c3nc(-c4cccc(C)c4)no3)C2)cc1 was 80

The reported inhibition of the compound CC1CN(C(=O)N2CC(c3nc(-c4cccc(Cl)c4)no3)C2)CC(C)O1 (centres undefined) was 51

The reported inhibition of the compound Cc1cccc(-c2noc(C3CN(S(=O)(=O)c4cccc(C)c4)C3)n2)c1 was 76

The reported inhibition of the compound O=C(c1ccccc1F)N1CC(c2nc(-c3cccc(Cl)c3)no2)C1 was 86

The reported inhibition of the compound O=C(C1CCC1)N1CC(c2nc(-c3cccc(Cl)c3)no2)C1 was 75
